Values were extracted from patent US20170370929A1.

Target: UniProtKB P41143
Sequence (P41143 whole entry): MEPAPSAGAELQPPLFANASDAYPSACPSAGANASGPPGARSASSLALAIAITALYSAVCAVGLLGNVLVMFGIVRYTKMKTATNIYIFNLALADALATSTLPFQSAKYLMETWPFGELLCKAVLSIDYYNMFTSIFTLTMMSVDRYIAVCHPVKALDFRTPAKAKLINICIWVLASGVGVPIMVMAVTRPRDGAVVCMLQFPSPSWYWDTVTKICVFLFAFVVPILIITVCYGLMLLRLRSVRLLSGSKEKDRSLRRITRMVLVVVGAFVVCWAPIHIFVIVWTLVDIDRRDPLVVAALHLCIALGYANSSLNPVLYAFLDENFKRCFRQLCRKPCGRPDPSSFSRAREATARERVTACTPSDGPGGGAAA
Experimental protocol: PathHunter β-arrestin recruitment assay in CHO-OPRD1 cells
Assay context: PAM mode, in the presence of an EC20 of leu-enkephalin, CHO-OPRD1 cells
Observable: pEC50
The read-out pEC50 is expressed as -log10 of concentration in moles per litre.

Need pEC50, item CC1(C)CC(=O)C2=C(C1)OC1=C(C(=O)CC(C)(C)C1)C2c1ccc(OCc2ccccc2)cc1 [Analog 1]
6.70
